system.name: human ether-à-go-go-related gene (hERG) potassium channel (human);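 note: peak tail current of the secondary pulse compared with the same well before compound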
Sequence (Q12809 whole entry, looked up): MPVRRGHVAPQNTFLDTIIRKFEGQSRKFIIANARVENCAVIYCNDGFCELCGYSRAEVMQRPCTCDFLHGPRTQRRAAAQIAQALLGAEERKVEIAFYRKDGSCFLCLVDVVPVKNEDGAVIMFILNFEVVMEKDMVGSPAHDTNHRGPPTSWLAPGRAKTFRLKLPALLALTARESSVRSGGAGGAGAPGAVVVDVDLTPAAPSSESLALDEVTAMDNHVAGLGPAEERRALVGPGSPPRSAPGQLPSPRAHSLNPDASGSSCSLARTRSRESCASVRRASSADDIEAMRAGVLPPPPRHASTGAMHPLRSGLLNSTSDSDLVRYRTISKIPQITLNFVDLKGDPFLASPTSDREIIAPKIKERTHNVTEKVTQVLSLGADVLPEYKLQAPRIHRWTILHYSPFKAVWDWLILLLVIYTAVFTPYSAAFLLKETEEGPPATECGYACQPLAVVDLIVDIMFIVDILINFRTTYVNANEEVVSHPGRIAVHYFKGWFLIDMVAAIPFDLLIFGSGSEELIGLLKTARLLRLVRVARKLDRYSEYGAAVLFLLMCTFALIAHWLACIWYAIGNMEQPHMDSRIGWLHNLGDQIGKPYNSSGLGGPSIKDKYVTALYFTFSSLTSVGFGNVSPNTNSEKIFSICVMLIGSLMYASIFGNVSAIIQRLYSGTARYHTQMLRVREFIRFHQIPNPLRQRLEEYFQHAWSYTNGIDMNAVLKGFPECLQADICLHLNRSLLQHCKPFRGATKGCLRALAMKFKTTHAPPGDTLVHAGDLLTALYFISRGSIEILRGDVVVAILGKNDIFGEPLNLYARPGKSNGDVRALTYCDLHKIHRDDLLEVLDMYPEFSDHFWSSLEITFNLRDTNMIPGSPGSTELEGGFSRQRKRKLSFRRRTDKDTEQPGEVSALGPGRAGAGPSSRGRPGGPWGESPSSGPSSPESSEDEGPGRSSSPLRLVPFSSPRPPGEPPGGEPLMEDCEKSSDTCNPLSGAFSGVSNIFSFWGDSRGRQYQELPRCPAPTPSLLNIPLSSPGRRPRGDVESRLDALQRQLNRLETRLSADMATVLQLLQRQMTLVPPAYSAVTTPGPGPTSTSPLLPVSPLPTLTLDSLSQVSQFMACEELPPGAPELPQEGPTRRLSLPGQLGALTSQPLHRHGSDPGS
experimental.details: primary screen, population patch clamp on CHO cells stably expressing hERG; higher = less effect of the substance
Hit rate of the full screen: of about 310,000 compounds, about 14,000 (4.5%) showed an effect of 50% or more. Effects have a minus sign here. What follows is part of a selection rich in strong results, with near analogues and random picks from the rest.
Outcome: true (1) for hERG current change (%, negative = inhibition) at 10uM of at least -10%; false (0) for anything lower.

Prompt: Answer whether hERG current change (%, negative = inhibition) at 10uM of COc1cccc(OCC(O)CN2CCOCC2)c1.Cl (stereo not drawn) is greater than or equal to -10%.
Response: true (1)

Prompt: Hello, I need to know if COc1ccc2cc(CN(CC3CCCO3)S(=O)(=O)c3ccc(C(C)=O)cc3)c(=O)[nH]c2c1 (stereo not drawn) has measured hERG current change (%, negative = inhibition) at 10uM not below -10%. Thanks!
Response: false (0)

Prompt: Tell me whether hERG current change (%, negative = inhibition) at 10uM is at least -10% here: `c1ccc(C[C@H]2CNCCN2CCc2cccc3ccccc23)cc1`
Response: false (0)

Prompt: Check if hERG current change (%, negative = inhibition) at 10uM >= -10% (inclusive). Item: `CN(C)S(=O)(=O)c1ccc(NC(=O)COc2ncnc3sccc23)cc1`
Response: true (1)
